System: OVCAR-4 ovarian
Assay: NCI tumour cell line growth inhibition, 48 h
MEASURED_PROPERTY: TGI

MOLECULE	TGI
N=C(N)SCCc1ccncc1	> 100 µM
O=c1c2cccnc2[nH]c2ccc3[nH]ncc3c12	> 10 µM

Okay, now this molecule:
What value of TGI has been recorded for this entry: CO[C@H](C(=O)[C@@H](O)[C@@H](C)O)[C@@H]1Cc2cc3cc(O[C@H]4C[C@@H](O[C@H]5C[C@@H](O)[C@H](O)C(C)O5)[C@H](O)C(C)(O)O4)cc(O)c3c(O)c2C(=O)[C@H]1O[C@H]1C[C@@H](O[C@H]2C[C@@H](O[C@H]3C[C@@H](OC)[C@H](O)C(C)O3)[C@@H](O)C(C)O2)[C@H](O)C(C)O1 (stereo partly drawn)
> 16.8 µM
